conditions: in isopropanol, 313.15 K
property.label: solubility (mole fraction)
A bare number is all that is needed in reply.

Q: Recorded solubility (mole fraction) for `O=Cc1cc(Br)c(O)c(Br)c1` , please?
A: 0.00841

====

settings: in isobutanol, 278.15 K
property.label: solubility (mole fraction)
A bare number is all that is needed in reply.

Q: Recorded solubility (mole fraction) for `O=Cc1cc(Br)c(O)c(Br)c1` , please?
A: 0.00368

====

details: in 1,4-dioxane, 303.15 K
property.label: solubility (mole fraction)
A bare number is all that is needed in reply.

Q: Recorded solubility (mole fraction) for `O=Cc1cc(Br)c(O)c(Br)c1` , please?
A: 0.0183
